Data origin: patent US20200016058A1

system: filaggrin, involucrin, loricrin, keratin 10, and transglutaminase 1; test: Gene expression test using normal human epidermal keratinocytes, text summary over the target genes; type: cell-based; conditions: all five target genes; 100 μM or 500 μM; summary of Table 4
measured-attribute: expression amounts of the respective target genes

compound: NCCCC[C@@H](N)C(=O)O [D-Lys, D-lysine]
result: increases
//
compound: N[C@H](CCC(=O)O)C(=O)O [D-Glu, D-glutamic acid]
result: increases
//
compound: N[C@H](Cc1c[nH]c2ccccc12)C(=O)O [D-Trp, D-tryptophan]
result: increases
//
compound: CC[C@H](C)[C@@H](N)C(=O)O [D-allo-Ile, D-allo-isoleucine]
result: increases
//
compound: N[C@H](Cc1ccccc1)C(=O)O [D-Phe, D-phenylalanine]
result: increases
//
compound: N[C@H](CC(=O)O)C(=O)O [D-Asp, D-aspartic acid]
result: increases
